Data provenance: patent US20200347130A1

Biological target: T1, CD96 extracellular region with His tag (CD96-His) (human, UniProt P40200 22-519)
T1 construct: also called CD96-ECD-His; Bio-CD96-His (biotin-labelled form)
T1 sequence: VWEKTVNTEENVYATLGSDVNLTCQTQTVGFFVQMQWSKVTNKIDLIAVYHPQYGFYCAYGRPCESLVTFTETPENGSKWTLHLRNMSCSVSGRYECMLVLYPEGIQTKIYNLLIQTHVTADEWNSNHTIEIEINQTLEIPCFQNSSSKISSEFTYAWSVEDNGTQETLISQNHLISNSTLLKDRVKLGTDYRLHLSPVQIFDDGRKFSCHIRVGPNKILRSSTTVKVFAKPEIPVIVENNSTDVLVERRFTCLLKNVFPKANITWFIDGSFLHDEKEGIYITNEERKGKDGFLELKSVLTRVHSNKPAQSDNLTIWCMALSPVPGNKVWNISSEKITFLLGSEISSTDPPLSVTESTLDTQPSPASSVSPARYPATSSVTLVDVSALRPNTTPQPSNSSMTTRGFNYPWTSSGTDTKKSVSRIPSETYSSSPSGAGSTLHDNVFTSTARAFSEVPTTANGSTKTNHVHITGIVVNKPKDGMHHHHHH
Assay: SPR (Biacore), antibody captured, CD96-ECD-His as mobile phase
measurementKind: Kd (nM)
Quick reminder: number only, in nM, skip the unit.

binder	Kd [nM]
ch1721 (antibody, human IgG4 S228P, kappa, V domains shown, also called chimeric antibody corresponding to m1721) VH: QVQLKESGPGLVAPSQSLSITCTVSGFSLISYGVNWVRQPPGKGLEWLGVIWGDGSTNYHSALISRLSISKDDSKSQVFLNLNSLQTDDTATYYCAKNYFYGSRYGYAMDSWGQGISVTVSS VL: DIQMTQSPASLSAAVGETVTITCRASENIYSSLAWYQQKQGKSPQLLVYNAKTLIETVASRFSGSGSGTQYSLKINSLQPEDFGSFYCQHHYGTPYTFGGGTKLEIKR	2.28

stdin: Report Kd for h1722-011 (antibody, V domains shown, Only variable regions are tied to this name) VH: EVQLVQSGAEVKKPGSSVKVSCKASGGTFSDYWMHWVKQAPGQGLEWIGMLHPNSGTTSFNEKFKIRVTITIDKSTSTAYMELSSLRSEDTAVYYCASDYSGPFAYWGQGTLVTVSS VL: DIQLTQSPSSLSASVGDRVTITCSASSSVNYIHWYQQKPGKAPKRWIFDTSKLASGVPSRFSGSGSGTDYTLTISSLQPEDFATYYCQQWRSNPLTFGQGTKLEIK please.
stdout: 0.948
